This collection of values is drawn from patent US5756423A.

Exercise: state measured pest or weed control at 1000 g/ha for each of the compounds provided.
Tested on: wild mustard (Brassica kaber), also known as Sinapis arvensis (SINAR)
Test: post-emergent herbicidal test, wild mustard
Type: in vivo
Conditions: Brassica, post-emergence, read-out: SINAR percent control
Procedure: Seeds of several different weed species were planted in sandy loam soil containing only trace organic matter. Propagules were sown in individuals rows using one species per row across the width of an aluminum flat (19.5×9.5×6 cm). […] The degree of weed control was evaluated 17-21 days after application and recorded as percentage of control as compared to the growth of the same species in an untreated control flat of the same. […]
Numbers only, in %.

Guide cases for pest or weed control at 1000 g/ha, answers given:
# chemical-structure, meas-value
data = [
    ("C=CCNCC(P(=O)(O)O)P(=O)(O)O", 100),
    ("CONCC(P(=O)(O)O)P(=O)(O)O", 0),
    ("CNCC(P(=O)(O)O)P(=O)(O)O", 100),
    ("O=P(O)(O)C(CNC1CC1)P(=O)(O)O", 100),
    ("CCCNCC(P(=O)(O)O)P(=O)(O)O", 100),
]

Consider now this further compound.
Query: Reported pest or weed control at 1000 g/ha, compound CCNCC(P(=O)(O)O)P(=O)(O)O : ____
Response: 10

---

system: wild oat (Avena fatua) (AVEFA); experiment: post-emergent herbicidal test, wild oat; assay type: in vivo; conditions: Avena fatua, post-emergence; post-emergent, 1.0 kg/ha (*), 17-21 days after application; read-out: AVEFA percent control
Exercise: state measured pest or weed control at 1000 g/ha for each of the molecules provided.
One number for each entry, in %.

# molecule, pest or weed control at 1000 g/ha (%)
rows = [
    ("CCN(CC)CC(P(=O)(O)O)P(=O)(O)O", 40),
    ("O=P(O)(O)C(CNC1CCc2ccccc21)P(=O)(O)O (stereo not shown)", 60),
    ("C=CCN(CC=C)CC(P(=O)(O)O)P(=O)(O)O", 95),
    ("CCOCCNCC(P(=O)(O)O)P(=O)(O)O", 0),
]

// each molecule listed below needs its pest or weed control at 1000 g/ha
1. C=CCCNCC(P(=O)(O)O)P(=O)(O)O
2. O=P(O)(O)C(CN[C@@H]1C[C@H]1c1ccccc1)P(=O)(O)O (relative stereo)
3. CCCN(CC)CC(P(=O)(O)O)P(=O)(O)O
4. O=P(O)(O)C(CNC1Cc2ccccc2C1)P(=O)(O)O
5. CCCCN(CCC)CC(P(=O)(O)O)P(=O)(O)O
6. O=P(O)(O)C(CN1C=NCCC1)P(=O)(O)O

Response:
1. 80
2. 0
3. 100
4. 50
5. 100
6. 95

---

Tested on: wild oat (Avena fatua) (AVEFA)
Test: post-emergent herbicidal test, wild oat
Format: in vivo
Settings: Avena fatua, post-emergence; post-emergent, 1.0 kg/ha (*), 17-21 days after application; read-out: AVEFA percent control
Procedure: Seeds of several different weed species were planted in sandy loam soil containing only trace organic matter. Propagules were sown in individuals rows using one species per row across the width of an aluminum flat (19.5×9.5×6 cm). […] The degree of weed control was evaluated 17-21 days after application and recorded as percentage of control as compared to the growth of the same species in an untreated control flat of the same. […]
Exercise: state measured pest or weed control at 1000 g/ha for each of the compounds provided.
Give bare numbers, in %.

Guide cases for pest or weed control at 1000 g/ha, answers given:
# compound, system, pest or weed control at 1000 g/ha, %
measured = [
    ("CCCCCCNCC(P(=O)(O)O)P(=O)(O)O", "wild oat (Avena fatua) (AVEFA)", 75),
    ("O=P(O)(O)C(CNCCc1ccccc1)P(=O)(O)O", "wild oat (Avena fatua) (AVEFA)", 60),
    ("CCCN(CCC)CC(P(=O)(O)O)P(=O)(O)O", "wild oat (Avena fatua) (AVEFA)", 100),
    ("O=P(O)(O)C(CN1CCCCCC1)P(=O)(O)O", "wild oat (Avena fatua) (AVEFA)", 60),
    ("CCCN(CCC(C)C)CC(P(=O)(O)O)P(=O)(O)O", "wild oat (Avena fatua) (AVEFA)", 100),
    ("Cc1cnn(CC(P(=O)(O)O)P(=O)(O)O)c1", "wild oat (Avena fatua) (AVEFA)", 10),
]

// each compound listed below needs its pest or weed control at 1000 g/ha
1. CC(C)N(C)CC(P(=O)(O)O)P(=O)(O)O
2. C=CCN(C)CC(P(=O)(O)O)P(=O)(O)O
3. C=CCN(CC)CC(P(=O)(O)O)P(=O)(O)O
4. CCCCCCN(CCC)CC(P(=O)(O)O)P(=O)(O)O
5. CCC(C)NCC(P(=O)(O)O)P(=O)(O)O (stereo not shown)
6. CCC1CCCCN1CC(P(=O)(O)O)P(=O)(O)O (stereo not shown)
7. CCCCNCC(P(=O)(O)O)P(=O)(O)O
8. O=P(O)(O)C(CN1CC=CCC1)P(=O)(O)O

Response:
[100, 100, 85, 85, 100, 98, 70, 100]

// each compound listed below needs its pest or weed control at 1000 g/ha
1. CCCN(C)CC(P(=O)(O)O)P(=O)(O)O
2. C=C(C)CNCC(P(=O)(O)O)P(=O)(O)O
3. CC1(C)CCCN(CC(P(=O)(O)O)P(=O)(O)O)C1
4. CC1CCCC1NCC(P(=O)(O)O)P(=O)(O)O (stereo not shown)

Response:
[100, 95, 0, 50]

// each compound listed below needs its pest or weed control at 1000 g/ha
1. O=P(O)(O)C(CNCC(F)(F)F)P(=O)(O)O
2. CCCN(CC(C)C)CC(P(=O)(O)O)P(=O)(O)O
3. CC1CCCN(CC(P(=O)(O)O)P(=O)(O)O)C1 (stereo not shown)
4. CCCCCN(CCC)CC(P(=O)(O)O)P(=O)(O)O

Response:
1: 20; 2: 100; 3: 50; 4: 100
